Entries and their measured phosphorylation enrichment follow.
Target: MERTK (UniProt Q12866)
Sequence (Q12866 whole entry, looked up): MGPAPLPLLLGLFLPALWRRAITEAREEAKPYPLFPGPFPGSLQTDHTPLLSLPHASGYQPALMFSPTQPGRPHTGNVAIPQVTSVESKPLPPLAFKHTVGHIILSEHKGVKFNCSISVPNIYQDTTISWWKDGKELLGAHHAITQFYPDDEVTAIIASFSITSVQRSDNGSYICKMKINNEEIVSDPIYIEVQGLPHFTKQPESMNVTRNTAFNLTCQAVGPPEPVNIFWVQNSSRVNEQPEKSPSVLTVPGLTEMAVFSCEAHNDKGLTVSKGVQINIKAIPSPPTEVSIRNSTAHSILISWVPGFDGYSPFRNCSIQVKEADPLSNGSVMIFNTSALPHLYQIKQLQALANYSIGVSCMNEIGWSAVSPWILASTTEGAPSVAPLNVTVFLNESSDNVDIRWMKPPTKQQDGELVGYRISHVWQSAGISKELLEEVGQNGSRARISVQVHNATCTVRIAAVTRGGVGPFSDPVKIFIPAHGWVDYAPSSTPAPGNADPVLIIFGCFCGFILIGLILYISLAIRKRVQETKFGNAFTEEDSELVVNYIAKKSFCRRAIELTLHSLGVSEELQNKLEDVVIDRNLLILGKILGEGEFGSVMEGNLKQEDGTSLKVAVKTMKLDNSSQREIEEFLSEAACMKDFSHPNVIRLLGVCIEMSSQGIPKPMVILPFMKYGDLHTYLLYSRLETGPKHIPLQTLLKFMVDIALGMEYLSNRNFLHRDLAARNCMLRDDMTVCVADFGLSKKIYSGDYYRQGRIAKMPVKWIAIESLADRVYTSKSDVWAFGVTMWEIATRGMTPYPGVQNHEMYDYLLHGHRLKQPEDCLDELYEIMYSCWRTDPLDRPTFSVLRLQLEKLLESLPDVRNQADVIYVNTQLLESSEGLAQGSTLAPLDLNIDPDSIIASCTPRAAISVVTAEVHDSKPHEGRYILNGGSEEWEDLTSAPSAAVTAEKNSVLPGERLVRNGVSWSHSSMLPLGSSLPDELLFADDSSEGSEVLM
Assay: phosphorylation enrichment, bacterial display (enrichment ratio); higher = better substrate or ligand; peptides without Tyr show the background;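 further: 11-residue human phosphosite peptides and single-mutation variants displayed on the E. coli surface, counted by deep sequencing, each peptide's frequency after selection divided by its frequency in the unselected input library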;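 further: frequency after pTyr selection over input frequency; kinase dosed for 20-30% of maximal phosphorylation in three min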

{"SEQUENCE_CONTENT": "WISNRSLDFSS [PRPH2_Y184_Y184S]", "TARGET_OR_SYSTEM": "MERTK (UniProt Q12866)", "phosphorylation enrichment": 0.408}
{"SEQUENCE_CONTENT": "RIVTTYIRERE [DNM2_Y463]", "TARGET_OR_SYSTEM": "MERTK (UniProt Q12866)", "phosphorylation enrichment": 0.758}
{"SEQUENCE_CONTENT": "KLLLKYSFHDA [RNF213_Y4141_V4146A]", "TARGET_OR_SYSTEM": "MERTK (UniProt Q12866)", "phosphorylation enrichment": 0.39}
{"SEQUENCE_CONTENT": "GMTLSYLFWEP [NDUFS8_Y74_R77W]", "TARGET_OR_SYSTEM": "MERTK (UniProt Q12866)", "phosphorylation enrichment": 1.43}
{"SEQUENCE_CONTENT": "RVFIKYLPEWT [PSEN1_Y240_L235R]", "TARGET_OR_SYSTEM": "MERTK (UniProt Q12866)", "phosphorylation enrichment": 0.678}
{"SEQUENCE_CONTENT": "GRLFAYPDTHR [CAT_Y358]", "TARGET_OR_SYSTEM": "MERTK (UniProt Q12866)", "phosphorylation enrichment": 0.344}
{"SEQUENCE_CONTENT": "GYCSWYRGWAP [TIMP3_Y195]", "TARGET_OR_SYSTEM": "MERTK (UniProt Q12866)", "phosphorylation enrichment": 0.975}
{"SEQUENCE_CONTENT": "VNNLVYENING [FRS2_Y306_K303N]", "TARGET_OR_SYSTEM": "MERTK (UniProt Q12866)", "phosphorylation enrichment": 5.31}
{"SEQUENCE_CONTENT": "GFWPRYVKVGS [NOG_Y172_R167G]", "TARGET_OR_SYSTEM": "MERTK (UniProt Q12866)", "phosphorylation enrichment": 0.447}
{"SEQUENCE_CONTENT": "EAEPYYCSLRD [NPHS1_Y1139_R1140C]", "TARGET_OR_SYSTEM": "MERTK (UniProt Q12866)", "phosphorylation enrichment": 2.28}
{"SEQUENCE_CONTENT": "FGGLRYGFGVL [KRTAP20-2_Y13_YF]", "TARGET_OR_SYSTEM": "MERTK (UniProt Q12866)", "phosphorylation enrichment": 0.42}
{"SEQUENCE_CONTENT": "SARSAYQEAID [SFN_Y151_M155I]", "TARGET_OR_SYSTEM": "MERTK (UniProt Q12866)", "phosphorylation enrichment": 0.471}
{"SEQUENCE_CONTENT": "SVVVPYEPSEV [TP53_Y220_P223S]", "TARGET_OR_SYSTEM": "MERTK (UniProt Q12866)", "phosphorylation enrichment": 0.503}
{"SEQUENCE_CONTENT": "KKYPDYIQIAR [SGMS2_Y59_M64R]", "TARGET_OR_SYSTEM": "MERTK (UniProt Q12866)", "phosphorylation enrichment": 0.392}
